Data origin: the supplement of paper PMC10567573

B1: STX5 (parent)
chain: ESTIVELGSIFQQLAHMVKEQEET

variants of: B1; test: protein stability index of a GFP-peptide fusion (GPS, HEK-293T) (PSI 1-6); higher = more stable; conditions: c terminus: a fixed tail appended;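 also: lentivirally expressed fusions sorted by FACS into six bins by GFP to DsRed ratio, PSI derived from sequencing read proportions per bin multiplied by bin number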
Recorded measurements of protein stability index, one per entry

Before answering, review these 6 worked examples.
>  <mutation_key>
E20F

>  <protein stability index>
1.98

$$$$
>  <mutation_key>
V18Q

>  <protein stability index>
2.37

$$$$
>  <mutation_key>
L14F

>  <protein stability index>
1.69

$$$$
>  <mutation_key>
T24P

>  <protein stability index>
2.77

$$$$
>  <mutation_key>
E6A

>  <protein stability index>
1.65

$$$$
>  <mutation_key>
T3W

>  <protein stability index>
1.24

$$$$

Task item: Item "H16A" has what recorded protein stability index?
Reply: 2.13

Task item: Item "H16T" has what recorded protein stability index?
Reply: 3.09

Task item: Item "T3S" has what recorded protein stability index?
Reply: 2.72
